inhibition at 5 µM values for the compounds below.
Test system: TNF-α (degradation of IkB in HeLa cells or A431 cells)
Test details: Human cell-based assay: inhibition of TNF-α induced degradation of IkB
Recorded conditions: read-out: Inhibition at Various Compound Concentrations, 5 μM

Here's what some known entries look like.
Chem smiles | inhibition at 5 µM
CC(C)(C)Oc1ccc(C[C@@H]2NC(=O)[C@@H](Cc3ccc(-c4ccccc4)cc3)NC(=O)[C@H](Cc3cccs3)NC(=O)COc3ccc(cc3)C[C@@H](C(=O)O)NC2=O)cc1 | > 80%
O=C1COc2ccc(cc2)C[C@@H](C(=O)NCS(=O)(=O)O)NC(=O)[C@H](CCc2ccccc2)NC(=O)[C@@H](Cc2ccc(-c3ccccc3)cc2)NC(=O)[C@H](Cc2cccs2)N1 | 10 to 50%
O=C1COc2ccc(cc2)C[C@@H](C(=O)O)NC(=O)[C@H](Cc2ccccc2)NC(=O)[C@H](Cc2ccc(-c3ccc(F)cc3)cc2)NC(=O)[C@H](Cc2cccs2)N1 | 50 to 80%

Now turn to the next compound.
So for O=C1COc2ccc(cc2)C[C@@H](C(=O)O)NC(=O)[C@H](Cc2ccccc2)NC(=O)[C@H](Cc2ccc(-c3ccc(NC(=O)OCc4ccccc4)cc3)cc2)NC(=O)[C@H](Cc2cccs2)N1 , the logged inhibition at 5 µM turned out to be < 10%

----------
Assay system: TNFα / TNFα receptor (TNFα R1/Fc) (Homo sapiens, UniProt P01375)
Construct: purchased R&D Systems
Sequence (P01375 77-233 limits assumed, species assumed): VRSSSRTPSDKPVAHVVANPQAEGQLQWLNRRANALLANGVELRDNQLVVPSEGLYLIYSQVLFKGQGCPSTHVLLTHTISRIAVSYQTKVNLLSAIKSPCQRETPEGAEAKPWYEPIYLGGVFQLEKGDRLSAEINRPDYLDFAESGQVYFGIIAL
Test details: Inhibition of binding of TNFα to the TNFα receptor (plate ELISA competition)
Recorded conditions: Table 2; read-out: Activity (IC50, inhibition of TNFα binding to TNFα R1/Fc)
Numbered stars: 1 amine (or outer) side, 2 acyl side, 3 side chain; on linkers, the order of the positions; unused ones are H or OH. Bridge positions count the residues as written; N and C are the ends. Square brackets hold non-standard residues; d marks the D form. Peptide text beside a SMILES is read from it. Bip = N[C@@H](Cc1ccc(-c2ccccc2)cc1)C(=O)O; Phe(4-NH2) = Nc1ccc(C[C@H](N)C(=O)O)cc1; d2Thi = N[C@H](Cc1cccs1)C(=O)O; Suc = O=C(CCC(=O)[*:2])[*:1]
// reported IC50 per item

Compound | Value measured
NCCCC[C@H](NC(=O)[C@@H]1Cc2ccc(cc2)NC(=O)CCC(=O)N[C@H](Cc2cccs2)C(=O)N[C@@H](Cc2ccc(-c3ccccc3)cc2)C(=O)N[C@H](Cc2ccccc2)C(=O)N1)C(=O)O [Compound 28] ([d2Thi][Bip][dF][Phe(4-NH2)]K-OH; linker N-4 via Suc) | < 10 µM

With those in mind, consider the next compound.
// field: IC50; key: O=C1COc2ccc(cc2)C[C@@H](C(=O)O)NC(=O)[C@H](Cc2ccc(-c3cccnc3)cc2)NC(=O)[C@@H](Cc2ccc(-c3ccccc3)cc2)NC(=O)[C@H](Cc2cccs2)N1 [Compound 633] ; value = < 10 µM

----------
Assay system: TNFα / TNFα receptor (TNFα R1/Fc) (Homo sapiens, UniProt P01375)
Construct: purchased R&D Systems
Test details: Inhibition of binding of TNFα to the TNFα receptor (plate ELISA competition)
Recorded conditions: Table 2; read-out: Activity (IC50, inhibition of TNFα binding to TNFα R1/Fc)
Quantity measured: IC50

Solved entries (count: 2):
Chem smiles | Value measured
O=C1COc2ccc(cc2)C[C@H](C(=O)N[C@H](CCc2ccccc2)C(=O)O)NC(=O)[C@H](CCc2ccccc2)NC(=O)[C@@H](Cc2ccc(-c3ccccc3)cc2)NC(=O)[C@H](Cc2ccncc2)N1 | < 10 µM
O=C1COc2ccc(cc2)C[C@H](C(=O)N[C@H](CCc2ccccc2)C(=O)O)NC(=O)[C@H](Cc2c[nH]c3ccccc23)NC(=O)[C@@H](Cc2ccc(-c3ccccc3)cc2)NC(=O)[C@H](Cc2c[nH]c3ccccc23)N1 | < 10 µM

IC50 measured on O=C1COc2ccc(cc2)C[C@@H](C(=O)O)NC(=O)[C@@H](C/C=C/c2ccccc2)NC(=O)[C@H](Cc2ccc(-c3ccccc3)cc2)NC(=O)[C@@H](Cc2cccs2)N1 = > 100 µM

----------
Below, each entry is listed with its recorded IC50.
Assay system: TNFα / TNFα receptor (TNFα R1/Fc) (Homo sapiens)
Construct: purchased R&D Systems
Test details: Inhibition of binding of TNFα to the TNFα receptor (plate ELISA competition)
Recorded conditions: Table 2; read-out: Activity (IC50, inhibition of TNFα binding to TNFα R1/Fc)
Numbered stars: 1 amine (or outer) side, 2 acyl side, 3 side chain; on linkers, the order of the positions; unused ones are H or OH. Bridge positions count the residues as written; N and C are the ends. Square brackets hold non-standard residues; d marks the D form. Peptide text beside a SMILES is read from it. Phe(3-Ph) = N[C@@H](Cc1cccc(-c2ccccc2)c1)C(=O)O; Bip = N[C@@H](Cc1ccc(-c2ccccc2)cc1)C(=O)O; Phe(4-NH2) = Nc1ccc(C[C@H](N)C(=O)O)cc1; d(hPhe) = N[C@H](CCc1ccccc1)C(=O)O; dPhg = N[C@@H](C(=O)O)c1ccccc1; Suc = O=C(CCC(=O)[*:2])[*:1]

Sample records with IC50:
Compound | IC50
O=C(O)CCNC(=O)[C@@H]1Cc2ccc(cc2)OCC(=O)N[C@@H](Cc2cccs2)C(=O)N[C@H](Cc2ccc(-c3ccccc3)cc2)C(=O)N[C@@H](Cc2ccc(O)cc2)C(=O)N1 | < 10 µM
O=C1CCC(=O)N[C@H](CCc2ccccc2)C(=O)N[C@@H](Cc2cccc(-c3ccccc3)c2)C(=O)N[C@H](Cc2ccccc2)C(=O)N[C@H](C(=O)O)Cc2ccc(cc2)N1 [Compound 113] ([d(hPhe)][Phe(3-Ph)][dF][Phe(4-NH2)]-OH; linker N-4 via Suc) | 10 to 30 µM
O=C1COc2ccc(cc2)C[C@@H](C(=O)N(CCS(=O)(=O)O)C(CO)(CO)CO)NC(=O)[C@H](CCc2ccccc2)NC(=O)[C@@H](Cc2ccc(-c3ccccc3)cc2)NC(=O)[C@H](Cc2ccncc2)N1 | < 10 µM

Proceeding to the next compound to report its IC50.
get_value(item= O=C1CCC(=O)N[C@H](c2ccccc2)C(=O)N[C@@H](Cc2ccc(-c3ccccc3)cc2)C(=O)N[C@H](Cc2ccccc2)C(=O)N[C@H](C(=O)O)Cc2ccc(cc2)N1 [Compound 120] ([dPhg][Bip][dF][Phe(4-NH2)]-OH; linker N-4 via Suc) , readout=IC50) returns > 100 µM

----------
Reported pIC50 values for a set of compounds
Assay system: TNFα / TNFα receptor (TNFα R1/Fc) (Homo sapiens, UniProt P01375)
Construct: purchased R&D Systems
Test details: Inhibition of binding of TNFα to the TNFα receptor (plate ELISA competition)
Recorded conditions: Table 2; read-out: Activity (IC50, inhibition of TNFα binding to TNFα R1/Fc)
pIC50: −log10 of the molar value. Numbered stars: 1 amine (or outer) side, 2 acyl side, 3 side chain; on linkers, the order of the positions; unused ones are H or OH. Bridge positions count the residues as written; N and C are the ends. Square brackets hold non-standard residues; d marks the D form. Peptide text beside a SMILES is read from it. * marks the point of attachment. Bip = N[C@@H](Cc1ccc(-c2ccccc2)cc1)C(=O)O; Phe(4-NH2) = Nc1ccc(C[C@H](N)C(=O)O)cc1; Diglycolyl = O=C(COCC(=O)[*:2])[*:1]; 4Pal = N[C@@H](Cc1ccncc1)C(=O)O; d2Thi = N[C@H](Cc1cccs1)C(=O)O; Suc = O=C(CCC(=O)[*:2])[*:1]; Boc = CC(C)(C)OC(=O)*

Recorded pIC50, per entry:
Compound | pIC50
O=C1CCC(=O)N[C@H](Cc2cccs2)C(=O)N[C@@H](Cc2ccc(-c3ccccc3)cc2)C(=O)N[C@H](Cc2ccccc2)C(=O)N[C@H](C(=O)N2CCC[C@@H]2C(=O)O)Cc2ccc(cc2)N1 [Compound 200] ([d2Thi][Bip][dF][Phe(4-NH2)][dP]-OH; linker N-4 via Suc) | 4.00 to 4.52
O=C(O)[C@H](Cc1ccccc1)NC(=O)[C@H]1Cc2ccc(cc2)NC(=O)[C@H](O)[C@@H](O)C(=O)N[C@H](Cc2cccs2)C(=O)N[C@@H](Cc2ccc(-c3ccccc3)cc2)C(=O)N[C@H](CCc2ccccc2)C(=O)N1 | > 5.00
O=C1COCC(=O)N[C@H](Cc2cccs2)C(=O)N[C@@H](Cc2ccc(-c3ccccc3)cc2)C(=O)N[C@H](Cc2ccccc2)C(=O)N[C@H](C(=O)O)Cc2ccc(cc2)N1 [Compound 310] ([d2Thi][Bip][dF][Phe(4-NH2)]-OH; linker N-4 via Diglycolyl) | < 4.00
O=C1COc2ccc(cc2)C[C@@H](C(=O)O)NC(=O)[C@H](CCc2ccccc2)NC(=O)[C@@H](Cc2ccc(-c3ccccc3)cc2)NC(=O)[C@H](Cc2ccc3ccccc3c2)N1 | > 5.00
O=C(O)CNC(=O)[C@@H]1Cc2ccc(cc2)OCC(=O)N[C@@H](Cc2ccc(-c3ccccc3)cc2)C(=O)N[C@H](Cc2ccc(-c3ccccc3)cc2)C(=O)N[C@@H](CCc2ccccc2)C(=O)N1 | 4.52 to 5.00
O=C1CCC(=O)N[C@H](Cc2cccs2)C(=O)N[C@@H](Cc2ccc(-c3ccccc3)cc2)C(=O)N[C@H](Cc2ccccc2)C(=O)N[C@H](C(=O)N2CCC[C@H]2C(=O)O)Cc2ccc(cc2)N1 [Compound 199] ([d2Thi][Bip][dF][Phe(4-NH2)]P-OH; linker N-4 via Suc) | < 4.00
O=C1CCC(=O)N[C@H](Cc2cccs2)C(=O)N[C@@H](Cc2ccc(-c3ccccc3)cc2)C(=O)N[C@@H](Cc2ccncc2)C(=O)N[C@H](C(=O)O)Cc2ccc(cc2)N1 [Compound 49] ([d2Thi][Bip][4Pal][Phe(4-NH2)]-OH; linker N-4 via Suc) | < 4.00
COc1cccc(C[C@@H]2NC(=O)[C@@H](Cc3ccc(-c4ccccc4)cc3)NC(=O)[C@H](Cc3ccncc3)NC(=O)COc3ccc(cc3)C[C@@H](C(=O)O)NC2=O)c1 | > 5.00

Item COC(=O)[C@@H]1Cc2ccc(cc2)NC(=O)CCC(=O)N[C@H](Cc2cccs2)C(=O)N[C@@H](Cc2ccc(-c3ccccc3)cc2)C(=O)N[C@H](Cc2ccccc2)C(=O)N1 [Compound 192] ([d2Thi][Bip][dF][Phe(4-NH2)]-OMe; linker N-4 via Suc) ; assay system TNFα / TNFα receptor (TNFα R1/Fc) (Homo sapiens, UniProt P01375); pIC50 reported as > 5.00

Item: CC(C)(C)OC(=O)NCCCC[C@H](NC(=O)[C@@H]1Cc2ccc(cc2)NC(=O)CCC(=O)N[C@H](Cc2cccs2)C(=O)N[C@@H](Cc2ccc(-c3ccccc3)cc2)C(=O)N[C@H](Cc2ccccc2)C(=O)N1)C(=O)O [Compound 35] ([d2Thi][Bip][dF][Phe(4-NH2)]K(Boc)-OH; linker N-4 via Suc) | System: TNFα / TNFα receptor (TNFα R1/Fc) (Homo sapiens, UniProt P01375) | pIC50: 4.52 to 5.00

Measured pIC50 (TNFα / TNFα receptor (TNFα R1/Fc) (Homo sapiens, UniProt P01375)), entry O=C1N[C@H](CCc2ccccc2)C(=O)N[C@@H](C(=O)O)Cc2ccc(cc2)NC(=O)[C@H](O)[C@@H](O)C(=O)N[C@H](Cc2cccs2)C(=O)N[C@H]1Cc1ccc(Br)cc1 : > 5.00

From: patent US8338565B2
